Experimental Target: T1, human Angiopoietin-2 (human, UniProt O15123 19-496)
T1 construct: Mostly bought recombinant protein (R&D Systems 623-AM/CF, 623-AN; biotinylated BT623) or supernatant of transfected 293F cells; also called Ang-2; rhAng-2
T1 sequence: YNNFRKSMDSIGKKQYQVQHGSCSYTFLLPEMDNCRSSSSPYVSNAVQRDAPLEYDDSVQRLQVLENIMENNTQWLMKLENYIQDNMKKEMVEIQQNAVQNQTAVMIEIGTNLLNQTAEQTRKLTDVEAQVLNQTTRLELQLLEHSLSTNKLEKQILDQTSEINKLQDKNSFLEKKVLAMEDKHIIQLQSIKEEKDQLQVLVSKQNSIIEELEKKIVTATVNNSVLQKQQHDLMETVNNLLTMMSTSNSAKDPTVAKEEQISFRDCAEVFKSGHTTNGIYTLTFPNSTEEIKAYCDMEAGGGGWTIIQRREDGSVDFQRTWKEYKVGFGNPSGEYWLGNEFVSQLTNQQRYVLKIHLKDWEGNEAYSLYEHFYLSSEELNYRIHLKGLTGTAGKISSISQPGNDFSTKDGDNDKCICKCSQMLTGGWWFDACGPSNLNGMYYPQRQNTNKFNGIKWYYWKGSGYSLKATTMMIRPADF
Protocol Text: Biacore, mAb captured
Procedure: The label-free surface plasmon resonance (SPR), or Biacore, was utilized to measure the antibody affinity to the antigen. For this purpose, a high-density goat anti-human antibody surface over a CM5 Biacore chip was prepared using routine amine coupling. All the purified mAbs were diluted to approximately 8 μg/ml in HBS-P running buffer containing 100 μg/ml BSA and 10 mg/mL carboxymethyldextran. […]
Give Kd for every item shown.

Return reported Kd values for all items listed beneath this line.
1. mAb 5.13.1 (antibody, V domains shown, Human hybridoma IgG (XenoMouse); also called x5.13) VH: EVQLVESGGGLVQPGGSLRLSCAASGFTFSSYWMSWVRQAPGKGLEWVANIKQDGSEKYYVDSVKGRFTISRDNAKNSLYLQMNSLRAEDTAVYYCARDPGIAVAGPFDYWGQGTLVTVSS VL: EIVMTQSPATLSVSPGERATLSCRASQSVSSNLAWYQQKPGQAPRLLIYGASTRATGIPARFSGSGSGTEFTLTISSLQSEDFAVYYCQQYNHWWTFGQGTKVEIKR
2. mAb 5.86.1 (antibody, V domains shown, Human hybridoma IgG (XenoMouse); also called x5.86) VH: QVQLVQSGAEVKKPGASVKVSCKASGYTFTGYHMYWVRQAPGQGLEWLGWINPNSGGTNYAQKFQGRVTMTRDTSISTAYMELSRLRSDDTAVYYCVRDQGIAAAGPFDYWCQGTLVTVSS VL: DIRMTQSPSSLSASVGDRVTITCRASQRISTYLNWYQQKPGKAPKFLIYAASSLQSGVPSRFSGSGSGTDFTLTISSLQPEDFATYYCQQSYTTPFTFGPGTKVDIKR
3. mAb 5.88.3 (antibody, V domains shown, Human hybridoma IgG (XenoMouse); also called x5.88) VH: EVQMVESGGGLVQPGGSLRLSCAASGFTLRSYWMSWVRQAPGKGLEWVANIKEDGSEKYHVDSVKGRFTISRDNAENSLFLQMSSLRAEDTAVYYCARDMEASAGLFDYWGQGTLVTVSS VL: EIVMTQSPATLSVSPGERAILSCRASQSISSNLAWYQQKPGQAPRLLIYGASTRATGIPARFSGSGSGTEFTLTISSLQSEDFAVYYCQQYNYWWTFGQGTKVEIKR

Out:
1. ≤ 0.047 nM
2. 0.744 nM
3. ≤ 0.037 nM
